Every entry's value here was drawn from paper PMC6683251.

For each of the molecules below, state its Excreted in urine, 12–24 h.
experiment: Urinary excretion of flavanol metabolites (0-24 h) after a single serving of soluble cocoa product (HPLC-ESI-QToF-MS); assay type: in vivo, human; settings: after CC (19.80 mg flavanols), mean ± SD, n = 13
Please reply with the bare figure in µmol and do not write the unit itself.

Exam item: Item under review: COc1cc(CC(=O)O)ccc1O [3-Methoxy-4-hydroxyphenylacetic acid] . Reported Excreted in urine, 12–24 h?
Marked response: 0.103

Exam item: Data request, read-out Excreted in urine, 12–24 h, for COc1ccc(/C=C/C(=O)O)cc1O
Marked response: 0.082

Exam item: Suppose we examine the molecule O=C(O)CCc1ccc(O)c(O)c1 [3,4-Dihydroxyphenylpropionic acid] ; what Excreted in urine, 12–24 h value has been reported?
Marked response: 0.215

Exam item: Name the reported Excreted in urine, 12–24 h value associated with the molecule O=C(O)Cc1cccc(O)c1 [Hydroxyphenylacetic acid, 3-Hydroxyphenylacetic acid]
Marked response: 0.600

Exam item: Reported Excreted in urine, 12–24 h, molecule O=C(O)CCc1ccc(O)cc1 [Hydroxyphenylpropionic acid] : ____
Marked response: 0.203
